Each record here notes measured pEC50.
# target: LXRβ ligand-binding domain (LBD) (Homo sapiens, UniProt P55055, DUP175-175)
# Construct: LXRβ (amino acids 156-461)
# Sequence (P55055 with tags, fused parts or gaps DUP175-175): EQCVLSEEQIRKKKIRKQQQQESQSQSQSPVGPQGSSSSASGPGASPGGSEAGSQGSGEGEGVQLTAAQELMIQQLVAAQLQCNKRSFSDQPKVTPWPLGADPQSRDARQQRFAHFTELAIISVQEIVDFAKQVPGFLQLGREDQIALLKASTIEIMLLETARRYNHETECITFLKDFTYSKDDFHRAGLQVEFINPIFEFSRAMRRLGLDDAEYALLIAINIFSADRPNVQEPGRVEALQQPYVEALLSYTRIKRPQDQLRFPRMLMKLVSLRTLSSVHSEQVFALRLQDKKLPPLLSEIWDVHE
# procedure.text: LXR Gal4 reporter transient transfection assay (M2H), Gal4β LBD
# protocol.conditions: HEK293 cells; read-out: M2H Gal4β LBD activity range (EC50)
pEC50: −log10 of the molar value.

A selection of reference data follows.
INSERT INTO measurements (compound, test_result) VALUES
  ('Cc1cc(C)c(S(=O)(=O)N(Cc2ccc(-c3cncc(C(C)(C)C(=O)O)c3)cc2)Cc2ccc(C(F)(F)F)o2)c(C)c1 [11/18]', '> 7.00'),
  ('Cc1cc(C)c(S(=O)(=O)N(Cc2ccc(-c3cccc(C4(C(=O)O)CCOCC4)c3)cc2)Cc2ccc(C(F)(F)F)o2)c(C)c1 [7/8]', '6.00 to 7.00'),
  ('Cc1cc(C)c(S(=O)(=O)N(Cc2ccc(-c3cccc(C(=O)O)c3)cc2)Cc2ccc(C(F)(F)F)o2)c(C)c1 [Example C6]', '6.00 to 7.00'),
  ('COc1cc(-c2cccc(C(C)(C)C(=O)O)c2)ccc1CN(Cc1ccc(C(F)(F)F)o1)S(=O)(=O)c1c(C)cc(C)cc1C [10/4]', '> 7.00');

**Q:** Item Cc1cc(C)c(S(=O)(=O)N(Cc2ccc(-c3cccc(S(=O)(=O)NCC(=O)O)c3)cc2)Cc2ccc(C(F)(F)F)o2)c(C)c1 [Example 25/1] : provide pEC50
**A:** 5.00 to 6.00

###

Reported values of pEC50 for individual entries
# target: LXRα ligand-binding domain (LBD) (Homo sapiens, UniProt Q13133)
# Sequence (Q13133 155-447): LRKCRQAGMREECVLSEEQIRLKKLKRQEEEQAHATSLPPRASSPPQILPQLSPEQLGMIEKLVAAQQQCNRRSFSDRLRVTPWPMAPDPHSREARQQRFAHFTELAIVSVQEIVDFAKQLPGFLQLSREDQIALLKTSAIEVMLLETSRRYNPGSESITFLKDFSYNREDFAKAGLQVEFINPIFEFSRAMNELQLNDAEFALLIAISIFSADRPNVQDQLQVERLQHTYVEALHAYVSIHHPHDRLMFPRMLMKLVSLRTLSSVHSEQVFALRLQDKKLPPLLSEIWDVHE
# procedure.text: LXR Gal4 reporter transient transfection assay (M2H), Gal4α LBD
# protocol.conditions: HEK293 cells; read-out: M2H Gal4α LBD activity range (EC50)
pEC50: −log10 of the molar value.

INSERT INTO results (compound, measured_metric, test_result) VALUES
  ('Cc1cc(C)c(S(=O)(=O)N(Cc2ccc(-c3cccc(CCC(=O)O)c3)cc2)Cc2ccc(C(F)(F)F)o2)c(C)c1 [Example 25]', 'pEC50', '6.00 to 7.00'),
  ('COC(=O)CS(=O)(=O)c1cccc(-c2ccc(CN(Cc3ccc(C(F)(F)F)o3)S(=O)(=O)c3c(C)cc(C)cc3C)cc2)c1 [Example 4]', 'pEC50', '5.00 to 6.00'),
  ('Cc1cc(C)c(S(=O)(=O)N(Cc2ccc(-c3cccc(C4(C(=O)O)CC4)c3)cc2)Cc2ccc(C(F)(F)F)o2)c(C)c1 [7/6]', 'pEC50', '6.00 to 7.00'),
  ('COc1ccc(-c2ccc(CN(Cc3ccc(C(F)(F)F)o3)S(=O)(=O)c3c(C)cc(C)cc3C)cc2)cc1C(C)(C)C(=O)O [7/9]', 'pEC50', '6.00 to 7.00'),
  ('COc1cc(-c2ccc(CO)c(C(C)(C)C(=O)[O-])c2)ccc1CN(Cc1ccc(C(F)(F)F)o1)S(=O)(=O)c1c(C)ccc2ccccc12.[Na+] [Example 23]', 'pEC50', '> 7.00'),
  ('Cc1cc(C)c(S(=O)(=O)N(Cc2ccc(-c3cc(F)cc(C4(C(=O)O)CC4)c3)cc2)Cc2ccc(C(F)(F)F)o2)c(C)c1 [7/7]', 'pEC50', '6.00 to 7.00'),
  ('CCOC(=O)Cc1cccc(-c2ccc(CN(Cc3ccc(C(F)(F)F)o3)S(=O)(=O)c3c(C)cc(C)cc3C)cc2)c1 [Example 1]', 'pEC50', '6.00 to 7.00'),
  ('Cc1cc(C)c(S(=O)(=O)N(Cc2ccc(C(F)(F)F)o2)CC2CC=C(c3cccc(C(C)(C)C(=O)O)c3)CC2)c(C)c1 (stereo not shown) [Example 19]', 'pEC50', '6.00 to 7.00'),
  ('Cc1cc(C)c(S(=O)(=O)N(Cc2ccc(-c3cccc(C(=O)O)c3)cc2)Cc2ccc(C(F)(F)F)o2)c(C)c1 [Example C6]', 'pEC50', '5.00 to 6.00'),
  ('Cc1cc(C)c(S(=O)(=O)N(Cc2ccc(-c3cccc(CC(=O)O)c3)cc2)Cc2cccc(C(F)(F)F)c2)c(C)c1 [2/4]', 'pEC50', '6.00 to 7.00');

**Q:** Give pEC50 for Cc1cc(C)c(S(=O)(=O)N(Cc2ccc(-c3cccc(Cc4nn[nH]n4)c3)cc2)Cc2ccc(C(F)(F)F)o2)c(C)c1 [Example C7]
**A:** 6.00 to 7.00

**Q:** State its pEC50 for this compound: Cc1cc(C)c(S(=O)(=O)N(Cc2ccc(-c3cccc(CC(=O)O)c3)cc2)C(C)c2ccc(C(F)(F)F)o2)c(C)c1 (stereo not shown) [2/2]
**A:** > 7.00

**Q:** Answer with the recorded pEC50 for the compound listed here: Cc1cc(C)c(S(=O)(=O)N(Cc2ccc(-c3cccc(S(=O)(=O)NCC(=O)O)c3)cc2)Cc2ccc(C(F)(F)F)o2)c(C)c1 [Example 25/1]
**A:** 5.00 to 6.00

From: patent US20200115357A1
